Where do these numbers come from? They come from paper PMC9340770.

molecular target: COX1 (Homo sapiens)
Sequence (P23219 24-599): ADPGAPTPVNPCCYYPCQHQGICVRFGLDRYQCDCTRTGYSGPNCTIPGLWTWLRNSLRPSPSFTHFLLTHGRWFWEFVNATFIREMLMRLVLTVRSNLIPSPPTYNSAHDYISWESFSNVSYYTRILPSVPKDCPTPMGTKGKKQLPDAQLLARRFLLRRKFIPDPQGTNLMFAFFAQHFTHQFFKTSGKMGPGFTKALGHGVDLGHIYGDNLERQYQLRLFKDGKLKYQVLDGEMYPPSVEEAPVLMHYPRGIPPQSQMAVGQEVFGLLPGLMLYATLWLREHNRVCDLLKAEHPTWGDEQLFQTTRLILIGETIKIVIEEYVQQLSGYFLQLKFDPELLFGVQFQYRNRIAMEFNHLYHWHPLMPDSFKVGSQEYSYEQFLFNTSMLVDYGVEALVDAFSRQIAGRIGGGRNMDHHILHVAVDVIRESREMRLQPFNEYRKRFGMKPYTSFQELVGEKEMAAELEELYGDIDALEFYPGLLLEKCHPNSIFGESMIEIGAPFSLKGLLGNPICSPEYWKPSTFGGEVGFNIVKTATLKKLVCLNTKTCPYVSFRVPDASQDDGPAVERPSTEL
pIC50: −log10 of the molar value.
Property name: pIC50

Consider the compound shown here: Cc1c(C#N)cccc1[C@@H](C)Nc1nnc(C)c2cnc(N3CCOCC3)cc12 What is its recorded pIC50?
< 5.00

* * *

molecular target: EDNRA (Homo sapiens, UniProt P25101); assay: Safetyscan Calcium Flux; conditions: antagonist mode, read-out: RC50 (IC50) EDNRA Antagonist
Sequence (P25101 21-427): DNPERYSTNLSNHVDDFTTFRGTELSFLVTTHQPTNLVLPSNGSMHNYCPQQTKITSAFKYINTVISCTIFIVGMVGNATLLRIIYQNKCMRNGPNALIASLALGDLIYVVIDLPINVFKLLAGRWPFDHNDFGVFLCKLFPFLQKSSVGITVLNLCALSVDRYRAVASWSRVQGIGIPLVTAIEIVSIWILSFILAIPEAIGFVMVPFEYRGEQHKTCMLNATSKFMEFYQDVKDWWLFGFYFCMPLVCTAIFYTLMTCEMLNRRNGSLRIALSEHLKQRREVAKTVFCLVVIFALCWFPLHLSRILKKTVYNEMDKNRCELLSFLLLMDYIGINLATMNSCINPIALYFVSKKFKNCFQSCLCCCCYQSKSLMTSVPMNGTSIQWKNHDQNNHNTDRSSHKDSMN
pIC50: −log10 of the molar value.
Property name: pIC50

Consider the molecule shown here: Cc1c(C#N)cccc1[C@@H](C)Nc1nnc(C)c2cnc(N3CCOCC3)cc12 What is its recorded pIC50?
< 5.00

* * *

assay: PK across species (ranges); assay type: in vivo, CD-1 mice, Sprague–Dawley rats, and beagle dogs; conditions: CD-1, Sprague-Dawley, beagle, mouse, rat, dog, in vivo; IV administration, range across mice, rats, dogs
Property name: clearance

Consider the compound shown here: Cc1c(C#N)cccc1[C@@H](C)Nc1nnc(C)c2cnc(N3CCOCC3)cc12 What is its recorded clearance?
4.4 to 14.6 mL/min/kg

* * *

test system: safety panel comprised of 78 protein targets; assay: DiscoverX (Eurofins) Safetyscan panel, overall; conditions: safety panel of 78 protein targets
pIC50: −log10 of the molar value.
Property name: pIC50

Consider the compound shown here: Cc1c(C#N)cccc1[C@@H](C)Nc1nnc(C)c2cnc(N3CCOCC3)cc12 What is its recorded pIC50?
< 5.00

* * *

assay: Dog PK (IV and PO); format: in vivo, beagle dogs; details: beagle, in vivo, IV 2 mg/kg
Property name: clearance

Consider the molecule shown here: Cc1c(C#N)cccc1[C@@H](C)Nc1nnc(C)c2cnc(N3CCOCC3)cc12 [Compound 32] What is its recorded clearance?
7.6 mL/min/kg

* * *

molecular target: CYP3A4 (Homo sapiens)
Sequence (P08684 whole entry): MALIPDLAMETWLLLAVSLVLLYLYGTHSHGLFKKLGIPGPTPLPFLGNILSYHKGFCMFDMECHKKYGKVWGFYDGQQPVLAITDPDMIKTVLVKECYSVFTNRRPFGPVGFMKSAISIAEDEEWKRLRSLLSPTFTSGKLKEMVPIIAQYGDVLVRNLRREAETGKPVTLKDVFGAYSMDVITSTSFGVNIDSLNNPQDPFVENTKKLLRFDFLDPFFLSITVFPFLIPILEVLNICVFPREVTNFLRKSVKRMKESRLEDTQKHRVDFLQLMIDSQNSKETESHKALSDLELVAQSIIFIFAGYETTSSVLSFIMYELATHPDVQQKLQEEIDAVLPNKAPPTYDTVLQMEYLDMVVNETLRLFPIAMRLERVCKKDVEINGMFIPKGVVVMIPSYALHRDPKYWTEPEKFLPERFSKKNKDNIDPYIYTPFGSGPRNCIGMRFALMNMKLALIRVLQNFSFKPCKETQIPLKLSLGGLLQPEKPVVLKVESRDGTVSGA
Property name: IC50 (µM)
Numbers only, in µM.

Provide value of IC50 for this record tested with CYP3A4 (Homo sapiens): Cc1c(C#N)cccc1[C@@H](C)Nc1nnc(C)c2cnc(N3CCOCC3)cc12
3.6

* * *

assay: PK across species (ranges); format: in vivo, CD-1 mice, Sprague–Dawley rats, and beagle dogs; settings: CD-1, Sprague-Dawley, beagle, mouse, rat, dog, in vivo; IV administration, range across mice, rats, dogs
Property name: half-life

Consider the compound shown here: Cc1c(C#N)cccc1[C@@H](C)Nc1nnc(C)c2cnc(N3CCOCC3)cc12 [Compound 32] What is its recorded half-life?
37.2 to 78 min

* * *

test: pKa determination (Sirius T3); format: physicochemical; settings: water/methanol co-solvent mixture, pH metric method; read-out: pKa (pH metric)
Property name: pKa
Give bare numbers.

Consider the compound shown here: Cc1c(C#N)cccc1[C@@H](C)Nc1nnc(C)c2cnc(N3CCOCC3)cc12 What is its recorded pKa?
6.62

* * *

target: ADRB2 (Homo sapiens, UniProt P07550); experiment: Safetyscan cAMP; conditions: agonist mode, read-out: RC50 (EC50) ADRB2 Agonist
Sequence (P07550 whole entry): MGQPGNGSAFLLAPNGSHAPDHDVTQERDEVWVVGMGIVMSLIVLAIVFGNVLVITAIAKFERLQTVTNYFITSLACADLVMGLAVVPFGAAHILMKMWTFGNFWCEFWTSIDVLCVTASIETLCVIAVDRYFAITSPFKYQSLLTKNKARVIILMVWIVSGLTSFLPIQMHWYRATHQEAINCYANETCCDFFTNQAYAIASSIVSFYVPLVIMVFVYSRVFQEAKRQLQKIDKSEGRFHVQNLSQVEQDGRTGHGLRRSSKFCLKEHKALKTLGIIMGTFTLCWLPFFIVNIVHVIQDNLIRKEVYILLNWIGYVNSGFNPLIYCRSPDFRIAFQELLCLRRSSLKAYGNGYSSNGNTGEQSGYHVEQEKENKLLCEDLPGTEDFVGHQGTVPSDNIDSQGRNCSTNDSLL
pEC50: −log10 of the molar value.
Property name: pEC50

Consider the compound shown here: Cc1c(C#N)cccc1[C@@H](C)Nc1nnc(C)c2cnc(N3CCOCC3)cc12 What is its recorded pEC50?
< 5.00

* * *

target: CCKAR (Homo sapiens); assay: Safetyscan Calcium Flux; conditions: antagonist mode, read-out: RC50 (IC50) CCKAR Antagonist
Sequence (P32238 whole entry): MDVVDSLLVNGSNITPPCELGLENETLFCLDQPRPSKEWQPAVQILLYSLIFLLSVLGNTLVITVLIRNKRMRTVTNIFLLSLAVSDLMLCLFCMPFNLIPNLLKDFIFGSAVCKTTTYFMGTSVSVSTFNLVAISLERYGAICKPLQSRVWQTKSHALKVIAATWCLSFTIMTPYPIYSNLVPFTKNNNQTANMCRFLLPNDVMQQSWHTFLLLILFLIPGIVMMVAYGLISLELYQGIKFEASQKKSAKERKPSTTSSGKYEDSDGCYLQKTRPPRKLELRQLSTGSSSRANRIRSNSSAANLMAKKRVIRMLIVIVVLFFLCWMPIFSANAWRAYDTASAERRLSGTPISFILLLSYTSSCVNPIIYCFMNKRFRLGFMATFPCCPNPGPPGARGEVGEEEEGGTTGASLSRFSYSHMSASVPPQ
pIC50: −log10 of the molar value.
Property name: pIC50

Consider the molecule shown here: Cc1c(C#N)cccc1[C@@H](C)Nc1nnc(C)c2cnc(N3CCOCC3)cc12 What is its recorded pIC50?
< 5.00

* * *

experiment: pKa determination (Sirius T3); assay type: physicochemical; details: water/methanol co-solvent mixture, pH 7.4, pKa (final pKa result)
Property name: pKa

Consider the compound shown here: Cc1c(C#N)cccc1[C@@H](C)Nc1nnc(C)c2cnc(N3CCOCC3)cc12 What is its recorded pKa?
6.7

* * *

assay: CNS mouse PK study; format: in vivo, female CD-1 mice; conditions: female, CD-1, mouse, CSF / free plasma; 1 h after PO 100 mg/kg single dose; read-out: CSF:Cp,u (Kp,uu)
Property name: Kp uu at 1 h
Numbers only.

Consider the molecule shown here: Cc1c(C#N)cccc1[C@@H](C)Nc1nnc(C)c2cnc(N3CCOCC3)cc12 [Compound 32] What is its recorded Kp uu at 1 h?
1.56

* * *

test: Human liver microsome intrinsic clearance; format: in vitro ADME; conditions: human liver microsomes
Property name: CLint scaled (mL/min/kg)
Numbers only, in mL/min/kg.

// solved cases for CLint scaled follow
Consider the compound shown here: Cc1c(Br)cccc1[C@@H](C)Nc1nnc(C)c2cnc(N3CCOCC3)cc12 [Compound 31] What is its recorded CLint scaled?
396

Consider the compound shown here: Cc1nnc(N[C@H](C)c2cn(C)nc2C(F)(F)F)c2cc(N3CCOCC3)ncc12 [Compound 30] What is its recorded CLint scaled?
37

Consider the compound shown here: Cc1nnc(N[C@H](C)c2cccc(C#N)c2)c2cc(N3CCOCC3)ncc12 [Compound 34] What is its recorded CLint scaled?
505

Please find the next compound below.
Consider the compound shown here: Cc1nnc(N[C@H](C)c2cc(N)cc(C(F)(F)F)n2)c2cc(N3CCOCC3)ncc12 [Compound 27] What is its recorded CLint scaled?
18
